# MEASUREMENT PROTOCOL: protein stability index of a GFP-peptide fusion (yeast GPS) (PSI 1-4); higher = more stable; sorted into four equal gates, so the index is relative within each strain
# DETAILS: san1∆
Class assignment keyed on protein stability index, ranges low = under 2, middle = from 2 up to 3, high = 3 and over

Query string: Place this sequence in its band: GGNFKDLSTLVHSSSPS [GAL11]
Result string: low

Query string: Place this sequence in its band: EDMIRSVFDATSDPVMH [RPN1]
Result string: high

Query string: Place this sequence in its band: ALIRRDFTLIPRMASVF [CDC53]
Result string: middle

Query string: Place this sequence in its band: LTGSPNNPLVQKKNFLF [ARP7]
Result string: middle

Query string: Place this sequence in its band: MNTVPFTSAPIEVTIGI [AAR2]
Result string: low

Next:
Query string: Place this sequence in its band: LIKFVDLSRNGRNGSNG [NUT1]
Result string: high

Query string: Place this sequence in its band: SDIVLDKKVTLITSEMF [SIN4]
Result string: low

Query string: Place this sequence in its band: KWPEYVRLQRQKKILSI [RPL8B]
Result string: low

Query string: Place this sequence in its band: GLESQIQEIKESVELPL [RPT2]
Result string: middle

Query string: Place this sequence in its band: IELNFDAVKDFKLGKFN [QCR2]
Result string: high
